The reported measurements were obtained from patent US10040781B2.

Target: IKKε (Homo sapiens (Human), UniProt Q14164)
Sequence (Q14164 whole entry): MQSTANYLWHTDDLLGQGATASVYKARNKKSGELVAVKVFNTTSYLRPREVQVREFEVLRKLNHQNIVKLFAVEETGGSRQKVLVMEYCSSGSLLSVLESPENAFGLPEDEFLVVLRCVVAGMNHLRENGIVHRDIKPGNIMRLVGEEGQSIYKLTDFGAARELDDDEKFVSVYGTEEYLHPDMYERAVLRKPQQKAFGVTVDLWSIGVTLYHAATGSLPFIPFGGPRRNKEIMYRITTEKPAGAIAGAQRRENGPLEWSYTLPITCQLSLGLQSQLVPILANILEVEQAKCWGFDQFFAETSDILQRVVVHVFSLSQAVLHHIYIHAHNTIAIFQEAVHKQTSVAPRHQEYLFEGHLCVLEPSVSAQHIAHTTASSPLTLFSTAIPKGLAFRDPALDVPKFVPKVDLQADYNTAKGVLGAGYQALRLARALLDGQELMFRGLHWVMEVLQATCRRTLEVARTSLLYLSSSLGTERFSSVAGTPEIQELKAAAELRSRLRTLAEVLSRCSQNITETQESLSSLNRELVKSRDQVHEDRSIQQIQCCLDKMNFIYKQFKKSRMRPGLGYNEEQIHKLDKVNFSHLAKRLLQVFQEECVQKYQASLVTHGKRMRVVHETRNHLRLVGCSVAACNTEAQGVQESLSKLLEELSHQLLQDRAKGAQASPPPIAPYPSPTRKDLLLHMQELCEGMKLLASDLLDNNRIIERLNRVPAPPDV
Experiment: IKKε TR-FRET enzymatic assay
Format: biochemical
Conditions: read-out: IKKe IC50
pIC50: −log10 of the molar value.
Let's look at some compounds and their measured pIC50.
OBSERVED_PROPERTY: pIC50

line_notation=CC(C)(O)C(=O)N1CCC(Oc2ccc(-c3ncnc(Nc4ccc(N5CCN(C6COC6)CC5)cc4)n3)cc2C#N)CC1 observed_property=pIC50 measured_result=6.61
line_notation=C[C@H](O)C(=O)N1CC[C@H](Oc2ccc(-c3ncnc(Nc4ccc(N5CC6(CCOCC6)C5)cc4)n3)cc2C#N)[C@H](F)C1 observed_property=pIC50 measured_result=8.70
line_notation=C[C@H](O)C(=O)N1CC[C@H](Nc2ccc(-c3ncnc(Nc4ccc(N5CCN(C6COC6)CC5)cc4)n3)cc2C#N)[C@H](F)C1 observed_property=pIC50 measured_result=6.76

###

Let's look at some compounds and their measured IC50.
Target: UniProtKB Q14164
Assay: IKKε TR-FRET enzymatic assay
Assay type: biochemical
Conditions: read-out: IKKe IC50
OBSERVED_PROPERTY: IC50 (nM)

compound="CS(=O)(=O)OC1CN(c2ccc(-c3ncnc(Nc4ccc(N5CCN(C6COC6)CC5)cc4)n3)cc2C#N)C1 [Example 276]" observed_property=IC50 units=nM operator_symbol== measured_result=38
compound="COc1cc(Nc2ncnc(-c3ccc(O[C@H]4CCN(C(=O)CC#N)C[C@H]4F)c(C#N)c3)n2)ccc1N1CCC(N2CCOCC2)CC1 [Example 327]" observed_property=IC50 units=nM operator_symbol== measured_result=2
compound="CN1CCN(C(=O)c2ccc(Nc3ncnc(-c4ccc(O[C@H]5CCN(C(=O)CO)C[C@H]5F)c(C#N)c4)n3)cc2)CC1 [Example 119]" observed_property=IC50 units=nM operator_symbol== measured_result=2
compound="COc1cc(Nc2ncnc(-c3ccc(O[C@H]4CCN(C(=O)[C@H](C)O)C[C@H]4F)c(C#N)c3)n2)ccc1N1CCN(C2COC2)CC1 [Example 389]" observed_property=IC50 units=nM operator_symbol== measured_result=1
compound="CS(=O)(=O)N1CC(Oc2ccc(-c3ncnc(Nc4ccc(N5CCN(C6COC6)CC5)cc4)n3)cc2C#N)C1 [Example 273]" observed_property=IC50 units=nM operator_symbol== measured_result=285
compound="N#Cc1cc(-c2ncnc(Nc3ccc(C4CCN(C5COC5)CC4)cc3)n2)ccc1OC1CCOCC1 [Example 54]" observed_property=IC50 units=nM operator_symbol== measured_result=4
compound="N#Cc1cc(-c2ncnc(Nc3ccc(N4CCN(C5COC5)CC4)c(C(F)(F)F)c3)n2)ccc1O[C@H]1CCN(C(=O)CO)C[C@H]1F [Example 368]" observed_property=IC50 units=nM operator_symbol== measured_result=2
compound="N#Cc1cc(-c2ncnc(Nc3ccc(N4CCN(C5COC5)CC4)cc3)n2)ccc1O[C@@H]1CCNCC1(F)F (single isomer, unassigned) [Example 150]" observed_property=IC50 units=nM operator_symbol== measured_result=14
compound="N#Cc1cc(-c2ncnc(Nc3cccc(C(O)C(F)(F)F)c3)n2)ccc1OC1CCOCC1 (centres unmarked) [Example 48]" observed_property=IC50 units=nM operator_symbol== measured_result=31
compound="N#Cc1cc(-c2ncnc(Nc3ccc(N4CCN(C5COC5)CC4)c(F)c3)n2)ccc1OC1CCOCC1 [Example 27]" observed_property=IC50 units=nM operator_symbol== measured_result=7
compound="N#Cc1cc(-c2ncnc(Nc3ccc(N4CCN(C5COC5)CC4)cc3)n2)ccc1O[C@@H]1CN(C(=O)CO)CC1(F)F (single isomer, unassigned) [Example 196]" observed_property=IC50 units=nM operator_symbol== measured_result=391
compound="Cc1nc(C)c(C(=O)N2CC[C@H](Oc3ccc(-c4ncnc(Nc5ccc(N6CCN(C7COC7)CC6)cc5)n4)cc3C#N)[C@H](F)C2)[nH]1 [Example 345]" observed_property=IC50 units=nM operator_symbol== measured_result=12
compound="N#Cc1cc(-c2ncnc(Nc3ccc(N4CCN(C5COC5)CC4)cc3)n2)ccc1O[C@H]1CCN(C(=O)[C@@H]2CCCC(=O)N2)C[C@H]1F [Example 117]" observed_property=IC50 units=nM operator_symbol== measured_result=4
compound="N#Cc1cc(-c2ncnc(Nc3ccc(N4CCN(C5COC5)CC4)cc3)n2)ccc1O[C@H]1CCNC[C@H]1F [Example 239]" observed_property=IC50 units=nM operator_symbol== measured_result=59
compound="C[C@H](O)C(=O)N1CC[C@@H](Oc2ccc(-c3ncnc(Nc4ccc(N5CCN(C6COC6)CC5)cc4)n3)cc2C#N)C(F)(F)C1 (single isomer, unassigned) [Example 156]" observed_property=IC50 units=nM operator_symbol== measured_result=23
compound="N#CCC(=O)N1CC[C@H](Oc2ccc(-c3ncnc(Nc4ccc(N5CCN(C6COC6)CC5)cc4)n3)cc2C#N)[C@H](F)C1 [Example 138]" observed_property=IC50 units=nM operator_symbol== measured_result=2
compound="C[C@@H]1C[C@H](Oc2ccc(-c3ncnc(Nc4ccc(N5CCN(C6COC6)CC5)cc4)n3)cc2C#N)CCN1C(=O)CO [Example 222]" observed_property=IC50 units=nM operator_symbol== measured_result=60
compound="N#Cc1cc(-c2ncnc(Nc3ccc(N4CCN(C5COC5)CC4)cc3)n2)ccc1N1CCC2(CCO2)CC1 [Example 214]" observed_property=IC50 units=nM operator_symbol== measured_result=43
compound="C[C@H](O)C(=O)N1CC[C@H](Oc2ccc(-c3ncnc(Nc4cnn(C5CCOCC5)c4)n3)cc2C#N)[C@H](F)C1 [Example 354]" observed_property=IC50 units=nM operator_symbol== measured_result=5
compound="Cc1cc(C)n(CCOc2ccc(-c3ncnc(Nc4ccc(N5CCN(C6COC6)CC5)cc4)n3)cc2C#N)n1 [Example 609]" observed_property=IC50 units=nM operator_symbol=≥ measured_result=1000
compound="N#Cc1cc(-c2ncnc(Nc3ccc(N4CCN(C5COC5)CC4)cc3)n2)ccc1O[C@H]1CCN(C(=O)CCO)CC1(F)F [Example 161]" observed_property=IC50 units=nM operator_symbol== measured_result=2
compound="C[C@H]1C[C@H](Oc2ccc(-c3ncnc(Nc4ccc(N5CCN(C6COC6)CC5)cc4)n3)cc2C#N)CCN1C(=O)CO [Example 221]" observed_property=IC50 units=nM operator_symbol== measured_result=68
compound="N#Cc1cc(-c2ncnc(Nc3ccc(N4CCN(C5COC5)CC4)cc3)n2)ccc1O[C@H]1CCN(C(=O)[C@H]2CC(F)(F)CN2)C[C@H]1F [Example 132]" observed_property=IC50 units=nM operator_symbol== measured_result=51
compound="N#Cc1cc(-c2ncnc(Nc3ccc(N4CCN(C5COC5)CC4)cc3)n2)ccc1O[C@@H]1CCN(C(=O)CO)C[C@H]1F [Example 235]" observed_property=IC50 units=nM operator_symbol== measured_result=5
compound="N#Cc1cc(-c2ncnc(Nc3ccc(N4CCN(C5COC5)CC4)cc3)n2)ccc1N1CCC2(C1)OCCO2 [Example 208]" observed_property=IC50 units=nM operator_symbol== measured_result=283
compound="N#Cc1cc(-c2ncnc(Nc3ccc(N4CCN(C5COC5)CC4)cc3)n2)ccc1OCCN1CCN(C(N)=O)CC1 [Example 606]" observed_property=IC50 units=nM operator_symbol== measured_result=494
